Listed below: growth inhibition values for each entry.
- EXPERIMENTAL PROTOCOL: NCI Yeast Anticancer Drug Screen. Data for the rad50 strain (AID 155);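 further: 0% = growth of vehicle-only cultures of the same strain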
- PROTOCOL CONDITIONS: S. cerevisiae rad50 strain growth inhibition; at 50.0 µM; active compounds read high
This is part of a sample that, as a whole, favours compounds with a hit. Of some 79,000 tested, about 15% had one in any assay.
The reply should be a number in %, with the unit left off.

Sample answers from the record:
MOLECULE: NC(=O)N/N=C1\CCCC(OC(=O)c2ccccc2)CC1 (configuration not stated)
growth inhibition (%): 2.85

MOLECULE: C[C@H]1CCC2C(OC(=O)[C@@H]2CN(C)C)[C@]2(C)C(=O)C=CC12O (some centres not stated)
growth inhibition (%): -24.5

MOLECULE: Cc1ccccc1NCc1ccccc1
growth inhibition (%): 25.8

MOLECULE: COc1ccc(NC(C)=O)c(O)c1C
growth inhibition (%): -0.6

MOLECULE: O=C(c1cccc(Cl)c1)c1cccc2ccccc12
growth inhibition (%): -1.7

# input Assign growth inhibition to the following record: CCOC(=O)c1c(-c2ccc(OC)cc2)c(C#N)c(=S)n(C2OC(CO)C(O)C(O)C2O)c1C (configuration not stated)
# output 17.7

# input Complete the entry with growth inhibition for CC(=O)OCC(OC(C)=O)C1OC2OC(C)(C)OC2C1OS(C)(=O)=O (configuration not stated)
# output 15.2

# input Indicate the recorded growth inhibition value for this molecule: C=CC(OC(=O)/C=C/C)OC(=O)/C=C/C
# output 16.9

# input Read off the recorded growth inhibition for c1ccc(N=C2NNC(=Nc3ccccc3)NN2)cc1
# output -17.9

---

- EXPERIMENTAL PROTOCOL: NCI Yeast Anticancer Drug Screen. Data for the mlh1 rad18 strain (AID 175)
- PROTOCOL CONDITIONS: S. cerevisiae mlh1 rad18 strain growth inhibition; at 50.0 µM; active compounds read high
This is part of a sample that, as a whole, favours compounds with a hit. Of some 79,000 tested, about 15% had one in any assay.
QUANTITY KIND: growth inhibition (%)
Give the value, in units of %, as a plain number.

MOLECULE: O=C(Nc1ccc2ccccc2c1)c1ccc(Cl)cc1
growth inhibition, %: 1.4

# input Provide only the value of recorded growth inhibition for O=C1CC2(CCCCC2)CC(=O)N1
# output -2.35

# input Quickly give me recorded growth inhibition for CCCCCCCCCCCCCCCCCCC1=CC(=O)c2ccccc2C1=O
# output 14.9

# input Read off the recorded growth inhibition for OC(CCN1CC2CCC(CC2)C1)(Cc1ccccc1)c1ccc(F)cc1 (stereo unspecified)
# output -7.25

# input Return growth inhibition for the following molecule: c1cc2c3c(cccc3c1)C1C2C2c3cccc4cccc(c34)C12 (stereo unspecified)
# output 0.05

# input Return value of growth inhibition for input Fc1c(F)c(-c2c(F)c(F)c(Br)c(F)c2F)c(F)c(F)c1Br , no commentary.
# output -0.65

# input Fill in reported growth inhibition for this entry: O=c1[nH]c2ccccc2c(N=Cc2ccccc2)c1-c1ccccc1
# output -0.4

---

- EXPERIMENTAL PROTOCOL: NCI Yeast Anticancer Drug Screen. Data for the sgs1 mgt1 strain (AID 161);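 further: 0% = growth of cultures given vehicle only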
- PROTOCOL CONDITIONS: S. cerevisiae sgs1 mgt1 strain, at 50.0 µM
Compounds without any hit were thinned out: in the full panel of roughly 79,000, 15% have a hit. The source made the active and inactive calls. Rule as the data show it: active = growth inhibition above about 70%; inactive = the rest.
I would appreciate it if you answered using one of these outcomes: active, inactive

# input Recorded call for O=C(Nc1ccc(Br)cc1)OCC1CC2C=CC1C2 (stereo not given) ?
# output active
